Provenance of the data: patent US20230095569A1

- EXPERIMENTAL_SYSTEM: human Claudin18.2 (CLDN18.2) (human, UniProt P56856 1-261)
- EXPERIMENT: cell-based or functional assay
RECORDED_METRIC: CDC EC50 (nM)
Provide only the numeric value, understood in nM.

q: Item chAb18 (antibody, V domains shown) VH: QVQLKESGPGLVAPSQSLSITCTVSGFSLTTYGINWVRQPPGKGLEWLGVIWGDGSTNYHSALISRLSISKDNSKSQVFLKLNSLQTDDTATYYCVKSSYYGNAMDYWGQGTSVTVSS VL: DIVMTQSPSSLTVTAGETVTMSCKSSQSLLNSGNQKNYLTWYQQKPGQPPKLLIYWASTRESGVPDRFTGSGSGTDFTLTISSVQAEDLAVYYCQNVYSYPFTFGSGTKLEI has what recorded CDC EC50?
a: 35

q: Subsequent entry: chAb06 (antibody, V domains shown) VH: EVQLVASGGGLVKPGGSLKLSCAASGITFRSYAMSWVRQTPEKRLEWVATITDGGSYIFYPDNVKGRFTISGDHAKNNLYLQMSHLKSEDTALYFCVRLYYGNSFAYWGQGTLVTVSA VL: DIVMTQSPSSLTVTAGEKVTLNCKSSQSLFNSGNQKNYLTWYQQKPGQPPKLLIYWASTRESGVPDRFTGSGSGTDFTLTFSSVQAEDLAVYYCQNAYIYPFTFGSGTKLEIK
a: 9.72

q: Subsequent entry: chAb24 (antibody, V domains shown) VH: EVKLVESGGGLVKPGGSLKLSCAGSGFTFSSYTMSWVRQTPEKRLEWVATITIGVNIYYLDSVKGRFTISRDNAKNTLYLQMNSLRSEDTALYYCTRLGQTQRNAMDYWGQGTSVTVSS VL: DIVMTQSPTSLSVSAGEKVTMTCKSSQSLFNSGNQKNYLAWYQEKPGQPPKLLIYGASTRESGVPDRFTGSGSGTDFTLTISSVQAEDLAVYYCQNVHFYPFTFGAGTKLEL
a: 12.8
